Provenance of the data: patent US20240018161A1

Examples of compounds with documented pEC50 follow.
- Test Target: CFTR-mediated chloride transport in human intestinal epithelial enteroid cells (Homo sapiens)
- Sequence (P13569 with tags, fused parts or gaps DEL508-508): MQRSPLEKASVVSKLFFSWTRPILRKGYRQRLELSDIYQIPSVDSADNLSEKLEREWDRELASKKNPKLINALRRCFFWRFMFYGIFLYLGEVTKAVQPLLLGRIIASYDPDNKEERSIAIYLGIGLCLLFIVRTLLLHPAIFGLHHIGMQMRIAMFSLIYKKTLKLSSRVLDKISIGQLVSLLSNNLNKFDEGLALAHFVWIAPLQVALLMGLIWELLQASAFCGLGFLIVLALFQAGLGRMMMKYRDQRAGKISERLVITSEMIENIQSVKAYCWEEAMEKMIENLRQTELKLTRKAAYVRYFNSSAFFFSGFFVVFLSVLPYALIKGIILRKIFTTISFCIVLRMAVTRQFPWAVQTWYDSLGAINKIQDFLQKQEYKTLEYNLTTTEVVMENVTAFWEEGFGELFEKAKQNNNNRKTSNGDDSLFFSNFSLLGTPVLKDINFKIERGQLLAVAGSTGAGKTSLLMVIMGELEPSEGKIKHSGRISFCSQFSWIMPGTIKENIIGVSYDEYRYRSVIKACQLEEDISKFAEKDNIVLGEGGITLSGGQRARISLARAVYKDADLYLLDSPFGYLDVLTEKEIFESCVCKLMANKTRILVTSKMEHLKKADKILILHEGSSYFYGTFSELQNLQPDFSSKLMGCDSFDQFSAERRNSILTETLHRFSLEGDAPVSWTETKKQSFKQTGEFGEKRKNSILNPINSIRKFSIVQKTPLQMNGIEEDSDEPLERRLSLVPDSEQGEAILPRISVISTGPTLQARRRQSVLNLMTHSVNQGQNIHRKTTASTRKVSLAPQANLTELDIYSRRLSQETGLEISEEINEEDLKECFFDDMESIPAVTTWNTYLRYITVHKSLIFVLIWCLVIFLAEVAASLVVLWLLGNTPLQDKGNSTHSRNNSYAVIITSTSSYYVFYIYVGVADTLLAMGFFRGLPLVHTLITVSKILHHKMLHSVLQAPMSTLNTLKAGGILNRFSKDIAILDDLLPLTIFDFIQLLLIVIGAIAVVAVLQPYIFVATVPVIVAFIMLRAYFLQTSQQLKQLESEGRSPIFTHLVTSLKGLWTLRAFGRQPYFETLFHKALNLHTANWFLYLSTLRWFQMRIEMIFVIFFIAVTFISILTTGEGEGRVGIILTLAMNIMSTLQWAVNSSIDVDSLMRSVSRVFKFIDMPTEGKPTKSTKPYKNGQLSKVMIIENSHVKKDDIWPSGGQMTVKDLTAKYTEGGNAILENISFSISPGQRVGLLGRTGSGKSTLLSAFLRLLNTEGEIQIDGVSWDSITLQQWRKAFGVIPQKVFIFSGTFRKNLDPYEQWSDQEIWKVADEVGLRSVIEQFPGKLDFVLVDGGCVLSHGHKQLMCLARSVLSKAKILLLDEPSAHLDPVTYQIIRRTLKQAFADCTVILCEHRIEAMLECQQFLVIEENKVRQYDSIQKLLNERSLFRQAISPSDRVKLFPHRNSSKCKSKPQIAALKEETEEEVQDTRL
- Assay Comment: Membrane potential dye, Enteroid Assay A
- Assay type: cell-based
- Cond: enteroid cells incubated with test compound 18-24 hours; acute 10 μM forskolin and 300 nM N-[2,4-bis(1,1-dimethylethyl)-5-hydroxyphenyl]-1,4-dihydro-4-oxoquinoline-3-carboxamide; read-out: Ent. A EC50
pEC50: −log10 of the molar value.

Query: Please give the documented pEC50 of Cc1cccc(C)c1-c1cc2nc(n1)NS(=O)(=O)c1cccc(c1)C(=O)N1C[C@H]3C[C@@H]1[C@@H](C3)O2 [Compound 363]
Response: 4.52 to 5.52

Query: Please give the documented pEC50 of Cc1cccc(C)c1-c1cc2nc(n1)NS(=O)(=O)c1cccc(c1)C(=O)N1CCN(Cc3ccn(C)n3)CC(C1)O2 (stereo not shown) [Compound 49]
Response: 4.52 to 5.52

Query: Please give the documented pEC50 of Cc1cccc(C)c1-c1cc2nc(n1)NS(=O)(=O)c1cccc(c1)C(=O)N1CCN(CC(C)C)CC(C1)O2 (stereo not shown) [Compound 44]
Response: > 6.00

Query: Please give the documented pEC50 of Cc1cccc(C)c1-c1cc2nc(n1)NS(=O)(=O)c1cccc(c1)C(=O)N1CCN(Cc3ccccn3)CC(C1)O2 (stereo not shown) [Compound 64]
Response: 5.52 to 6.00

Query: Please give the documented pEC50 of Cc1cccc(C)c1-c1cc2nc(n1)NS(=O)(=O)c1cccc(c1)C(=O)N1CCN(CCC(C)(C)C)CC(C1)O2 (stereo not shown) [Compound 45]
Response: > 6.00

Query: Please give the documented pEC50 of Cc1cccc(C)c1-c1cc2nc(n1)NS(=O)(=O)c1cccc(c1)C(=O)N1CCN(CCC(C)(C)C)C(CO2)C1 (stereo not shown) [Compound 177]
Response: > 6.00

Query: Please give the documented pEC50 of CNc1ccc(CN2CCN3C(=O)c4cccc(c4)S(=O)(=O)Nc4nc(cc(-c5c(C)cccc5C)n4)OC[C@H]3C2)cn1 [Compound 265]
Response: 4.52 to 5.52
